# SUBJECT_OF_TEST: JAK2 (Homo sapiens, UniProt O60674)
# Construct: 5 μl of catalytic domain recombinant Kinase enzyme+Tyr peptide substrate (Invitrogen, Calif.)
# Sequence (O60674 849-1124 limits assumed): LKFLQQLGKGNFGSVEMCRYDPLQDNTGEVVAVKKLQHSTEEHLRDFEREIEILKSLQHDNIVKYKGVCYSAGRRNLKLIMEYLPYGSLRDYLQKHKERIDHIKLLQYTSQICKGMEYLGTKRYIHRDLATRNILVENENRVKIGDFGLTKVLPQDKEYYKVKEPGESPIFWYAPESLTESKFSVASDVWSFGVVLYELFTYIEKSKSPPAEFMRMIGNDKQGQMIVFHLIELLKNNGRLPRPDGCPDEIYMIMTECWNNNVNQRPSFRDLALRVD
# PROCEDURE_DETAILS: Z'-LYTE kinase assay, JAK2 tyrosine phosphorylation activity
Would you kindly list IC50 for each of these compounds?

Which IC50 is listed for `CNC(=O)CNc1nc(Nc2cccc(NC(C)=O)c2)ncc1C(N)=O` ?
100 to 1000 nM

Quick check: IC50 of `CC(=O)Nc1cc(Nc2ncc(C(N)=O)c(NCc3ccccc3)n2)ccc1C` ?
10 to 100 nM

Request the reported IC50 associated with `CC[C@H](C)Nc1nc(Nc2ccc(Cl)c(NC(=O)NC)c2)ncc1C(N)=O`
100 to 1000 nM

GET /values?readout=IC50&item= CC(=O)Nc1cccc(Nc2ncc(C(=O)O)c(NCC3CCNC3)n2)c1 (centres unmarked)
100 to 1000 nM

Entry under review: `COC[C@H]1CCCN1C(=O)Nc1cccc(Nc2ncc(C(N)=O)c(N[C@H](C)c3ccccc3)n2)c1` . Reported IC50?
10 to 100 nM

Reported IC50, compound `NC(=O)c1cnc(Nc2cccc(NC(=O)N3CCCC3)c2)cc1NCc1cccc(F)c1` : ____
10 to 100 nM

Look up IC50: `NC(=O)c1cnc(Nc2cccc(NC(=O)N3CCCC3)c2)nc1NCC(F)(F)F`
10 to 100 nM

Can you look up the measured IC50 of `CC(=O)Nc1cccc(Nc2ncc(C(N)=O)c(N[C@H](CO)c3ccccc3)n2)c1` for me?
10 to 100 nM

====

# SUBJECT_OF_TEST: JAK2 (Homo sapiens)
# Construct: 5 μl of catalytic domain recombinant Kinase enzyme+Tyr peptide substrate (Invitrogen, Calif.)
# PROCEDURE_DETAILS: Z'-LYTE kinase assay, JAK2 tyrosine phosphorylation activity
Would you kindly list IC50 for each of these molecules?

Find the recorded IC50 belonging to `NC(=O)c1cnc(Nc2cccc(N(C(=O)C3CC3)C3CC3)c2)nc1NCc1ccccc1` and report it.
> 1000 nM

# lookup: IC50 of `CC(=O)Nc1cccc(Nc2ncc(C(N)=O)c(Nc3ccc(N4CCOCC4)c(F)c3)n2)c1`
10 to 100 nM

What does the record list as IC50 for `NC(=O)c1cnc(Nc2ccc(Cl)c(NC(=O)N3CCCC3)c2)nc1NCc1cccc(Cl)c1` ?
100 to 1000 nM

# query: IC50 of entry `C[C@@H](Nc1nc(Nc2ccc(Cl)c(NC(=O)N3CCOCC3)c2)ncc1C(N)=O)c1ccccc1`
10 to 100 nM

Entry `CC(=O)Nc1cccc(Nc2cc(NCc3cccc(Cl)c3)c(C(N)=O)cn2)c1` : reported IC50 = ?
100 to 1000 nM

====

So I've got a bunch of compounds here, and I need their pIC50 values.
# SUBJECT_OF_TEST: TYK2 (Homo sapiens)
# Construct: 5 μl of catalytic domain recombinant Kinase enzyme+Tyr peptide substrate (Invitrogen, Calif.)
# Sequence (P29597 897-1176 limits assumed): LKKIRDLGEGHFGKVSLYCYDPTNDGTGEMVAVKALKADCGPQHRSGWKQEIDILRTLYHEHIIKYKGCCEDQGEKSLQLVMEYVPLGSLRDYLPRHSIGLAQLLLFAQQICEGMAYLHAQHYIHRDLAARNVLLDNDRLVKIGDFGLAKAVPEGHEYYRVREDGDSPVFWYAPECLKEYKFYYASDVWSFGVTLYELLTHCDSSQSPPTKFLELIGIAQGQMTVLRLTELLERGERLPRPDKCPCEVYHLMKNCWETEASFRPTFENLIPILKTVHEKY
# PROCEDURE_DETAILS: Z'-LYTE kinase assay, TYK2 tyrosine phosphorylation activity
pIC50: −log10 of the molar value.

Endpoint output: pIC50 of CC(=O)Nc1cc(Nc2ncc(C(N)=O)c(N[C@H](C)c3ccccc3)n2)ccc1Cl [Example 108] . Value?
7.00 to 8.00

Using the record for NC(=O)c1cnc(Nc2ccc(F)c(NC(=O)N3CCC3)c2)nc1NCc1ccccc1 [Example 234] , report its pIC50.
7.00 to 8.00

Which pIC50 is listed for COCC(=O)Nc1cccc(Nc2ncc(C(N)=O)c(NCc3ccccc3)n2)c1 [Example 29] ?
8.00 to 9.00

GET /values?readout=pIC50&item= NC(=O)c1cnc(Nc2cccc(NC(=O)N3CCCC3)c2)nc1NCc1cccc(Cl)c1 [Example 180]
7.00 to 8.00

Fill in the blank: the reported pIC50 of COCC(=O)N(C)c1cccc(Nc2ncc(C(N)=O)c(NC(C)C)n2)c1 [Example 88] is ____.
7.00 to 8.00

Requested field: pIC50. Item: CC(=O)Nc1cccc(Nc2ncc(C(N)=O)c(NCC(=O)N3CCCC3)n2)c1 [Example 65]
7.00 to 8.00

So what's the measured pIC50 for this one? C[C@@H](Nc1nc(Nc2cccc(NC(=O)N3CC[C@H](O)C3)c2)ncc1C(N)=O)c1ccccc1 [Example 128]
7.00 to 8.00

Fill blank: measured pIC50 of the compound COc1ccc(Nc2ncc(C(N)=O)c(NCc3cccc(F)c3)n2)cc1N(C)C(=O)N1CCCC1 [Example 240] is ____.
< 6.00

For CC(C)CCNc1cc(Nc2cccc(NC(=O)N3CCCC3)c2)ncc1C(N)=O [Example 328] , what is its reported pIC50?
7.00 to 8.00

Source listed as patent US8853230B2.
